assay_notes: 28-day repeat daily dose inhalation toxicity and toxicokinetics, dog study 7300227
condition_info: beagle, in vivo
readout_label: NOAEL at 28 days (mg/kg/day)
Your answer is read as mg/kg/day, so omit the unit and give the number.

Request: Give NOAEL at 28 days for CO[C@H]1C[C@@H]2CC[C@@H](C)[C@@](O)(O2)C(=O)C(=O)N2CCCC[C@H]2C(=O)O[C@H]([C@H](C)C[C@@H]2CC[C@@H](O)[C@H](OC)C2)CC(=O)[C@H](C)/C=C(\C)[C@@H](O)[C@@H](OC)C(=O)[C@H](C)C[C@H](C)/C=C/C=C/C=C/1C [Rapamycin]
Response: 0.0134
